All values here come from PubChem BioAssay (NCI).

- Tested on: SK-OV-3 ovarian
- Measurement Protocol: NCI-60 one-dose screen, 48 h
- Applied Conditions: 10 µM unless noted
This is part of a sample that, as a whole, favours compounds with a hit. Of some 83,000 tested, about 20% had one in any assay. Calls of active or inactive are those of the source. The calls were made as follows: active = growth percent below 10; inactive = the rest.
Thanks in advance; please answer with one of these: active, inactive

Query :: // param item: C[C@H]1[C@@H]2[C@H]3CC[C@@H]4[C@@]5(C)Cc6c([nH]c7ccccc67)C(C)(C)[C@@H]5CC[C@@]4(C)[C@]3(C)CC[C@]23CO[C@]1(C)[C@@H](C(=O)/C=C/c1ccccn1)C3 ; yields the recorded call
Result :: inactive

Query :: // param item: CC(C)c1cc(C(=O)O)c(O)c(C(C)C)c1.CC(C)c1cc(C(=O)O)c(O)c(C(C)C)c1.[Mn] ; yields the recorded call
Result :: inactive

Query :: // param item: CC1=CC(=O)N(c2cccc3c(N4C(=O)C=C(C)C4=O)cccc23)C1=O ; yields the recorded call
Result :: inactive

Query :: // param item: CC/C=C\C[C@H]1CC=C2C(=O)C=C[C@@H]2CC=CCCCC(=O)O[C@@H](CCCCC)CC=C2C(=O)C=C[C@@H]2CC=CCCCC(=O)O[C@@H](CCCCC)CC=C2C(=O)C=C[C@@H]2CC=CCCCC(=O)O[C@@H](CCCCC)CC=C2C(=O)C=C[C@@H]2CC=CCCCC(=O)O1 ; yields the recorded call
Result :: inactive

Query :: // param item: O=C(NO)c1ccc(Cn2c(=O)n(-c3ccccc3)c(=O)c3ccccc32)cc1 ; yields the recorded call
Result :: inactive

Query :: // param item: Cc1csc(-c2ccc3c(c2)COC3(CCCN(C)C)c2ccc(F)cc2)c1 (configuration not stated) ; yields the recorded call
Result :: active

Query :: // param item: CC1=NN(c2ccc(S(=O)(=O)O)cc2Cl)C(=O)C1 ; yields the recorded call
Result :: inactive

Query :: // param item: CC(=O)n1c(/C(C#N)=C/c2ccc(N(C)C)cc2)cc2ccccc21 ; yields the recorded call
Result :: inactive

Query :: // param item: CCNCCCn1c2c(c3ccc([N+](=O)[O-])cc3c1=O)C(=O)c1cc(OC)cnc1-2 ; yields the recorded call
Result :: active

Query :: // param item: O=C(O)c1cccc2c1C(=O)N(c1ccc3c(c1)Cc1ccccc1-3)C2=O ; yields the recorded call
Result :: inactive

Query :: // param item: c1cnc2[nH]cc(-c3csc(-c4cn(CCCN5CCCCC5)c5ccccc45)n3)c2c1 ; yields the recorded call
Result :: inactive

Query :: // param item: CC(C)(C)c1cc(-n2c(-c3ccc(Cl)cc3)nc3cc(C(=O)Nc4ccc(Cl)cc4)ccc32)n[nH]1 ; yields the recorded call
Result :: inactive

Query :: // param item: CC(=O)c1c(C)[nH]c(-c2nc3ccc(N4CCN(C)CC4)cc3[nH]2)c1-c1ccc(OCC2CCOCC2)cc1 ; yields the recorded call
Result :: inactive

Query :: // param item: Cc1cc(N2CCOCC2)nc(N(CCCNc2ccnc3cc(Cl)ccc23)Cc2ccco2)n1 ; yields the recorded call
Result :: inactive

Query :: // param item: C=C1C(=O)O[C@H]2[C@H]1CC/C(COC(=O)N[C@H](Cc1c[nH]c3ccccc13)C(=O)OC)=C\CC[C@@]1(C)O[C@@H]21 ; yields the recorded call
Result :: inactive

Query :: // param item: Cc1cc(C)nc(NC(N)=NCCc2ccccc2)n1 ; yields the recorded call
Result :: inactive

Query :: // param item: N=c1ccc2nc3c(cc(N)c4ccccc43)oc-2c1 ; yields the recorded call
Result :: active
